# ASSAY TARGET: IDO (IFNγ-treated Hela cells) (Homo sapiens, UniProt P14902)
# Construct: endogenous in cells; host or cells: Hela cells treated with IFNγ (10 ng/ml)
# Sequence (P14902 whole entry): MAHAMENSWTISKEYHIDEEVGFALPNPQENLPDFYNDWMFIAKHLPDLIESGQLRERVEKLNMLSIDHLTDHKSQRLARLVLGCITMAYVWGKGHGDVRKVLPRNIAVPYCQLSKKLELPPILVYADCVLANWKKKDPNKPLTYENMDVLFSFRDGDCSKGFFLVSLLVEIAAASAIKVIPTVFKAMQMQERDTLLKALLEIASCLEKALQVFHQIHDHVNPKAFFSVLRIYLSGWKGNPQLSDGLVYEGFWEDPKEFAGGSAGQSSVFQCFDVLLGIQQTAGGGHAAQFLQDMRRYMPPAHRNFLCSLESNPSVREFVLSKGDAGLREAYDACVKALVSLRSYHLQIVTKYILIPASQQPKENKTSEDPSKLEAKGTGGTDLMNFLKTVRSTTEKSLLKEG
# ASSAY PROCEDURE: IDO Kynurenine Assay with Hela Cells
# Type: cell-based
# REPORTED CONDITIONS: IFNγ 10 ng/ml, 20 hours incubation, kynurenine absorbance at 490 nm, read-out: Hela Cells LLE_IDO_ABS_DR (IC50)
pIC50: −log10 of the molar value.
MEASURE: pIC50

CC(C)CN(CC(C)C)c1ccc(-c2ccccc2-c2nnn[nH]2)cc1NC(=O)Cc1cccc(F)c1F | 7.30
COc1ccc(CC(=O)Nc2cc(-c3ccccc3-c3nnn[nH]3)ccc2N(CC(C)C)CC(C)C)cc1 | 8.39
CC(C)CN(Cc1ccccc1)c1ccc(-c2ccccc2-c2nnn[nH]2)cc1NC(=O)Cc1ccccc1C(F)(F)F | 7.70

A: CC(C)(C)CC(=O)Nc1cc(-c2ccccc2-c2nnn[nH]2)ccc1N1CC2CC1CN2Cc1ccccc1 (stereo not drawn)
B: Cc1ccc(CC(=O)Nc2cc(-c3ccccc3-c3nnn[nH]3)ccc2N2CCC(F)(F)C2)cc1
Parameter check: reported pIC50 is higher for which label, A or B ? Record your answer as the label of the chosen record.
B
(B: 5.74, A: 5.44)

1: CC(C)CN(CC(C)C)c1ccc(-c2ccccc2-c2nnn[nH]2)cc1NC(=O)Cc1ccc2c(c1)OCO2
2: CC(C)CN(CC(C)C)c1ccc(-c2ccccc2-c2nnn[nH]2)cc1NC(=O)Cc1cccnc1
3: Cc1ccc(CC(=O)Nc2cc(-c3ccccc3-c3nnn[nH]3)ccc2N2CC3CC2CN3Cc2ccccc2)cc1 (stereo not drawn)
4: CC(C)CN(CC(C)C)c1ccc(-c2ccccc2-c2nnn[nH]2)cc1NC(=O)Cc1ccc(C#N)cc1
5: Cc1ccc(OCC(=O)Nc2cc(-c3ccccc3-c3nnn[nH]3)ccc2N(CC(C)C)CC(C)C)cc1
Write the entries in order, lowest recorded pIC50 first. Returns: the labels arranged in the requested order.
5, 2, 1, 3, 4
(5: 6.80, 2: 7.15, 1: 7.70, 3: 8.07, 4: 8.29)

a: CC(C)CN(CC(C)C)c1ccc(-c2ccccc2-c2nnn[nH]2)cc1NC(=O)Cc1ccc(O)cc1
b: Cc1ccc(CC(=O)Nc2cc(-c3ccccc3C(=O)O)ccc2N(CC(C)C)CC(C)C)cc1
Of a versus b , which is the one with smaller reported pIC50? Record your answer as the label of the chosen record.
a
(a: 7.05, b: 8.00)
